assayNotes: qHTS assay to identify small molecule agonists of the RXR signaling pathway - cell viability counter screen (AID 1159529); also: nearly all actives have a fitted effect of over 50% in size; also: potency is read from the fitted curve at half-maximal effect
measurementParameters: RXR-alpha-bla HEK293T viability, CellTiter-Glo, 16 h; series mostly up to 76.8 µM
Records with an inconclusive call do not appear. The source made the active and inactive calls. Calls follow the shape of the dose curve; as a rule, active = well fitted cell-killing curve with a large enough effect in the repeat runs; inconclusive = weak or mixed curves, or effect the other way; inactive = no such curve, though single readings can be large or run the other way.
outcomeMeasure: Potency

Some entries whose results are on file:
- C=CC(=O)NC(C)(C)C: inactive
- COC(=O)Cc1cccc2ccccc12: inactive
- Clc1ccccc1-c1nc(-c2ccncc2)no1: inactive
- CC(C)C/C=C(\C=O)c1ccccc1: inactive
- N#C[C@@H]1CC(F)(F)CN1C(=O)CNC1CC2CCC(C1)N2c1ncccn1 (some centres not stated): inactive
- O=C(O)c1cccc(C(=O)O)c1C(=O)O: 24.8 µM (active)

Quick check: Potency of CC(C)(Cc1c[nH]c2ccccc12)NCC(O)COc1ccccc1C#N (configuration not stated) ? inactive

Quick check: Potency of `C=Cc1ccc(C=C)cc1` ? inactive

Quick check: Potency of `Nc1ncnc2c1ncn2[C@@H]1O[C@H](CO)[C@@H](O)[C@H]1O` ? inactive

Quick check: Potency of `CCN(CC)CC(=O)OCC(=O)[C@@]1(O)CC[C@H]2[C@@H]3CCC4=CC(=O)CC[C@]4(C)[C@H]3[C@@H](O)C[C@@]21C` ? inactive

Quick check: Potency of `CC/C=C/CCO` ? inactive

Quick check: Potency of `Cc1cc(SC2=C(O)C[C@@](CCc3ccc(N)cc3)(C(C)C)OC2=O)c(C(C)(C)C)cc1CO` ? inactive

* * *

target: Aryl hydrocarbon receptor (Homo sapiens)
assayNotes: qHTS assay to identify small molecule that activate the aryl hydrocarbon receptor (AhR) signaling pathway (AID 743085); also: nearly all actives have a fitted effect of over 15% in size;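 as to activation: HG2L7.5c1 human HepG2 liver cells with stably integrated DRE-driven firefly reporter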
measurementParameters: HepG2 AhR-luc (HG2L7.5c1), luciferase, 24 h; series mostly up to 70.3 µM
Inconclusive results are not listed. Activity calls are given as the source filed them. Calls follow the shape of the dose curve; as a rule, active = well fitted activation curve with a large enough effect in the repeat runs; inconclusive = weak or mixed curves; inactive = no such curve, though single readings can be large or run the other way.
Outcomes you can answer with include only these: active, inactive

What was the test verdict on `c1ccc(CCNc2nc(-c3ccccc3)cs2)cc1` ? active

What was the test verdict on `O=c1[nH][nH]c2ccccc12` ? active

What was the test verdict on `CC(=O)Nc1cccc(N)c1` ? active

What was the test verdict on `Sc1nc(S)nc(S)n1` ? inactive

What was the test verdict on `CCCCCCCCCCCCCCCCN` ? inactive

What was the test verdict on `O=P(c1ccccc1)(c1ccccc1)c1ccccc1` ? inactive

What was the test verdict on `CCOC(OCC)OCC` ? inactive

* * *

assayNotes: qHTS assay to identify small molecule agonists of the retinoic acid receptor (RAR) signaling pathway (AID 1159553)
measurementParameters: C3RL4 RARE luciferase reporter, agonist, 6 h; series mostly up to 73.3 µM
Records with an inconclusive call do not appear. Active and inactive are the calls of the source. Calls come from the whole dose curve; as a rule, active = well fitted activation curve with a large enough effect in the repeat runs; inconclusive = weak or mixed curves, or effect the other way; inactive = no such curve, though single readings can be large or run the other way.
Outcomes you can answer with include only these: YES for active, NO for inactive

What was the test verdict on `c1ccc(CN(Cc2ccccc2)Cc2ccccc2)cc1` ? NO

What was the test verdict on `c1ccc(CCNc2nc(-c3ccccc3)cs2)cc1` ? YES

What was the test verdict on `O=C1c2ccccc2C(=O)C1c1ccc2ccccc2n1` ? YES

What was the test verdict on `O=c1c2ccccc2oc2ccccc12` ? YES

What was the test verdict on `O=C(c1ccc(Cl)cc1)c1ccc(Cl)cc1` ? NO

What was the test verdict on `O=C(O)c1cccc(C(=O)O)c1C(=O)O` ? NO

What was the test verdict on CC(CC(C#N)(c1ccccc1)C(C)C)N(C)C (centres undefined) ? NO

What was the test verdict on CCOc1ccc2c(c1)C(C)CC(C)(C)N2 (centres undefined) ? YES

What was the test verdict on CCCCOC(=O)C(C)Oc1ccc(Oc2ccc(C(F)(F)F)cn2)cc1 (centres undefined) ? NO

What was the test verdict on CC(C(=O)O)c1ccc(/C=C2\CCCCC2=O)cc1 (centres undefined) ? YES

What was the test verdict on CC1=C(C)C(=O)C(C(CCCCCC(=O)O)c2ccccc2)=C(C)C1=O (centres undefined) ? NO

What was the test verdict on CC(COc1ccccc1)NC(C)C(O)c1ccc(O)cc1 (centres undefined) ? NO

What was the test verdict on `CCCC(=O)OCc1ccccc1` ? NO

What was the test verdict on `C=CCCC` ? NO

* * *

assayNotes: qHTS assay to identify small molecule agonists of the hypoxia (HIF-1) signaling pathway - cell viability counter screen (AID 1224844); also: nearly all actives have a fitted effect of over 50% in size
measurementParameters: HRE-bla ME-180 viability, CellTiter-Glo luminescence, 17 h; series mostly up to 76.8 µM
Text: National Center for Advancing Translational Sciences [NCATS] NIH Chemical Genomics Center [NCGC] U.S. Environmental Protection Agency [EPA] National Institutes of Environmental Health Sciences [NIEHS] National Toxicology Program [NTP] U.S. Food and Drug Administration [FDA] Hypoxia-inducible factor-1 (HIF-1) is the major hypoxia-regulated transcription factor that controls cellular responses to low oxygen concentration. […]
Records with an inconclusive call do not appear. Active and inactive are the calls of the source. Calls follow the shape of the full dose curve.
Outcomes you can answer with include only these: active, inactive

What was the test verdict on `CCCCCCCCCCCCCCCCC(=O)O` ? inactive

What was the test verdict on `O=C1C=CCCC1` ? inactive

What was the test verdict on `CC1(C)CC(O)CC(C)(C)N1[O]` ? inactive

What was the test verdict on `Nc1ncnc2c1ncn2[C@@H]1O[C@H](CO)[C@@H](O)[C@H]1O` ? inactive

What was the test verdict on `CCCCCCOC(=O)c1ccccc1` ? active

What was the test verdict on `CC(=O)c1cccnc1` ? inactive

What was the test verdict on `CCCCCCCCCCCC(=O)OCC` ? inactive

What was the test verdict on `C=C[Si](OCC)(OCC)OCC` ? inactive

What was the test verdict on CCC1=C(C)CN(C(=O)NCCc2ccc(S(=O)(=O)NC(=O)NC3CCC(C)CC3)cc2)C1=O (stereo not given) ? inactive

What was the test verdict on `Cc1cc(C)n(CO)n1` ? inactive

What was the test verdict on `CCn1nc(Cc2ccccc2)cc1C1CCN(C[C@H]2C[C@H](N(C)[C@@H](C(=O)O)C(C)C)C[C@@H]2c2cccc(F)c2)CC1` ? inactive

What was the test verdict on `COc1ccc(/C(C)=C/C(=O)O)c(OC)c1` ? inactive

What was the test verdict on `CC(C)(C)c1ccc(CCC=O)cc1` ? inactive

What was the test verdict on `O=[N+]([O-])c1cccc(I)c1` ? inactive

What was the test verdict on `CCCCCCCCOCCCN` ? inactive

What was the test verdict on `OCCCO` ? inactive

What was the test verdict on `O=c1[nH]nc(-c2ccc([N+](=O)[O-])o2)o1` ? inactive

What was the test verdict on `O=C1CCCN1CCO` ? active

What was the test verdict on C=CC(O)CCCCC (stereo not given) ? inactive

What was the test verdict on CC(C)=CCCC(C)C=O (stereo not given) ? inactive

What was the test verdict on `CCOc1cc(OCC)c(C(C)=O)cc1OCC` ? inactive

What was the test verdict on `c1ccc(CCNc2nc(-c3ccccc3)cs2)cc1` ? inactive

What was the test verdict on CCC(C)CCCC(C)(C)O (stereo not given) ? inactive

What was the test verdict on `CC(C)(C)c1cc(C=O)cc(C(C)(C)C)c1O` ? inactive

What was the test verdict on `O=C(O)c1ccccc1-n1cc(C(=O)O)c(=O)c2cc(Nc3c(F)cc(F)cc3Cl)c(Cl)cc21` ? inactive

What was the test verdict on `CCCCCO` ? inactive

What was the test verdict on CC(O)CN (stereo not given) ? inactive

What was the test verdict on `[O-][n+]1ccc(Cl)cc1` ? inactive

What was the test verdict on `COc1cc(CNC(=O)CCCC/C=C/C(C)C)ccc1O` ? inactive

What was the test verdict on CCc1ccc(C(=O)C(C)CN2CCCCC2)cc1 (stereo not given) ? inactive

* * *

assayNotes: qHTS assay to identify small molecule agonists of the retinoic acid receptor (RAR) signaling pathway (AID 1159553)
measurementParameters: C3RL4 RARE luciferase reporter, agonist, 6 h; series mostly up to 73.3 µM
Inconclusive results are not listed. The source made the active and inactive calls. Calls follow the shape of the dose curve; as a rule, active = well fitted activation curve with a large enough effect in the repeat runs; inconclusive = weak or mixed curves, or effect the other way; inactive = no such curve, though single readings can be large or run the other way.
Outcomes you can answer with include only these: true (1) for active, false (0) for inactive

What was the test verdict on `COc1cccc([C@H](O)C2CCN(CCc3ccc(F)cc3)CC2)c1OC` ? false (0)

What was the test verdict on CCCCCCCCC(=O)OCC(C)OC(=O)CCCCCCCC (stereo not drawn) ? false (0)

What was the test verdict on `C(/C=C/C=C/Nc1ccccc1)=Nc1ccccc1` ? false (0)

What was the test verdict on `CCOc1ccccc1O` ? false (0)

What was the test verdict on `CC(=O)CC/C=C(\C)CC/C=C(\C)CC/C=C(\C)CCC=C(C)C` ? false (0)

What was the test verdict on `CC(=O)c1ccc(Cl)c(Cl)c1Cl` ? false (0)

What was the test verdict on `Nc1ncnc2c1ncn2[C@@H]1O[C@H](CO)[C@@H](O)[C@H]1O` ? false (0)

What was the test verdict on `COC(=O)/C=C/C(C)=C\C=C\C(C)=C\C=C\C=C(C)\C=C\C=C(C)\C=C\C(=O)O` ? true (1)

What was the test verdict on `CCCCCCC/C=C/C=O` ? false (0)

What was the test verdict on `Clc1ccccc1-c1nc(-c2ccncc2)no1` ? true (1)

What was the test verdict on `O=C(Cl)c1ccc(F)c(Cl)c1` ? false (0)

What was the test verdict on `O=C(O)c1ccncc1` ? false (0)

What was the test verdict on `C=CC(=O)NC(C)(C)C` ? false (0)

Source: PubChem BioAssay (Tox21)
